- Test system: Staphylococcus aureus
- ASSAY TEXT: Antibacterial activity against methicillin-resistant Staphylococcus aureus F511 assessed as growth inhibition after 18 to 24 hrs by broth microdilution method
- Format: functional
OBSERVED PROPERTY: MIC

MOLECULE: Cc1noc(-c2ccc(N3CC(Cn4ccnc4)OC3=O)cc2)n1 (racemic)
OBSERVED PROPERTY: MIC
VALUE: > 50 µg/mL
//
MOLECULE: Cc1noc(-c2ccc(N3CC(Cn4cncn4)OC3=O)cc2)n1 (racemic)
OBSERVED PROPERTY: MIC
VALUE: > 50 µg/mL
//
MOLECULE: Cc1noc(-c2ccc(N3CC(CI)OC3=O)cc2F)n1 (racemic)
OBSERVED PROPERTY: MIC
VALUE: > 50 µg/mL
//
MOLECULE: CC(=O)NCC1CN(c2ccc(-c3nc(C)no3)cc2)C(=O)O1 (racemic)
OBSERVED PROPERTY: MIC
VALUE: 12.5 µg/mL

Okay, now this molecule:
State, in one line, measured MIC of Cc1noc(-c2ccc(N3CC(CN=[N+]=[N-])OC3=O)cc2)n1 (racemic)
> 50 µg/mL

----------
- Tested on: Staphylococcus aureus
- ASSAY TEXT: Antibacterial activity against methicillin-resistant Staphylococcus aureus F511 assessed as growth inhibition after 18 to 24 hrs by broth microdilution method
- Assay type: functional
OBSERVED PROPERTY: MIC (mg/L)
Your answer should be a plain number; it is taken to be in mg/L.

Below are worked cases with known answers.
MOLECULE: Cc1noc(-c2ccc(N3CC(CI)OC3=O)cc2)n1 (racemic)
VALUE: 50
--
MOLECULE: CC(=O)NCC1CN(c2ccc(-c3nc(C)no3)c(F)c2)C(=O)O1 (racemic)
VALUE: 12.5

Provide measured MIC on Staphylococcus aureus for "CC(=O)NC[C@H]1CN(c2ccc(N3CCOCC3)c(F)c2)C(=O)O1" please.
3.13

Provide measured MIC on Staphylococcus aureus for CC(=S)NCC1CN(c2ccc(-c3nc(C)no3)c(F)c2)C(=O)O1 (racemic) please.
1.6

Provide measured MIC on Staphylococcus aureus for CC(=S)NCC1CN(c2ccc(-c3nc(C)no3)cc2)C(=O)O1 (racemic) please.
1.6
